// values below are reported pIC50
PROCEDURE TEXT: Cytotoxicity against human SV5A8 cells expressing SV40 binding sites driving firefly/renilla luciferase reporter gene after 24 hrs by luminometer
Type: cell-based
MEASUREMENT SETUP: SV5A8, 24 h
pIC50: −log10 of the molar value.

Examples with answers:
{"COMPOUND STRING": "Cc1ccc2c(NCc3ccc(NC(=O)C4CCN(Cc5ccccc5)CC4)cc3)nc(N3CCC3)nc2c1", "pIC50": "4.76 to 5.02"}
{"COMPOUND STRING": "CNc1nc(NCc2ccc(NC(=O)c3cccnc3)cc2)c2cc([N+](=O)[O-])ccc2n1", "pIC50": "< 4.63"}
{"COMPOUND STRING": "CNc1nc(NCc2ccc(NC(=O)c3ccc(Cl)cc3F)cc2)c2cc(C)ccc2n1", "pIC50": "< 5.56"}

Give its pIC50 value. Item: Cc1ccc2nc(N(C)C)nc(NCc3ccc(NC(=O)c4ccc(F)cc4)cc3)c2c1 4.93 to 5.24

Please answer likewise for Cc1cc(C)c2nc(N3CCN[C@@H](C)C3)nc(NCc3ccc(NC(=O)c4ccc(F)cc4)cc3)c2c1 < 5.30

Please answer likewise for CNc1nc(NCc2ccc(NC(=O)c3ccc(Cl)nc3)cc2)c2cccc(C)c2n1 4.67 to 5.54
